Quick reference: absorbance at 450 nm of the listed items.
# assay.system: dog IgG Fab fragment
# protocol.text: ELISA, coated antigen, E. coli supernatant
Report the value in A450 with no unit label.

These recorded examples may help you get a feel for the data.
SVG13 (VHH) VHH: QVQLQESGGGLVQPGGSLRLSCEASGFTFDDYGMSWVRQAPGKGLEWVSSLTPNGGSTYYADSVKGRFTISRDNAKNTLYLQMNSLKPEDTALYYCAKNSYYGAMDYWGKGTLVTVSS	0.59
SVG07 (VHH, not shown: large carriers) VHH: QVQLQESGPGLVKPSQTLSLTCTVSGGSITTTAYAWSWIRQPPGKGLEWMGAIRFDGTTDYSPSLKSRISISRDTSNNQFSLRMSSVTPEDTAVYYCARYGVVSDHGGLDYWGQGTQVTVSS	0.454
SVG23 (VHH, not shown: large carriers) VHH: QVQLQESGGGLVQAGGSLRLSCAASGRAFGSYTMNWFRQAPGKERDFVAGIMSSGMNTWYADSVKGRFTISRDNAKNTVYLQMNSLKPEDTAVYYCASRPRSTMTSGRYLYDYWGQGTQVTVSS	0.061

Now consider a different binder.
Prompt line: For the binder SVG06 (VHH) VHH: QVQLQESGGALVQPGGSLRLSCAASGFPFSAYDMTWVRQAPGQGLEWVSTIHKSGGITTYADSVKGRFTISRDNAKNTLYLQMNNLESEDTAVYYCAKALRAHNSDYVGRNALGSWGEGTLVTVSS , report absorbance at 450 nm.
Response line: 0.178

Hey, just so you know, these numbers are from patent US20240376185A1.
